Reported viability at 48 h, 25 µM values for a set of molecules
run_description: in vitro
stated_conditions: human, hek293t cells
recorded_endpoint: viability at 48 h, 25 µM (%)

>>> observed_value("COc1cc(Cl)c(C)cc1NC(=O)C(C#N)=Cc1c(C)n[nH]c1C")
83.6
>>> observed_value("O=C(CCl)NC(Cn1cncn1)c1ccccc1 (stereo not drawn)")
0.644
>>> observed_value("C=CC(=O)NC(c1ccc(C)cc1)C(C)S(C)(=O)=O (stereo not drawn)")
100
>>> observed_value("CC(Cl)C(=O)NCc1nn(-c2ccccc2)c2c1CCC2 (stereo not drawn)")
116
>>> observed_value("O=C(CCl)N(Cc1cccs1)C1CCS(=O)(=O)C1 (stereo not drawn)")
1.65
>>> observed_value("CC(Cl)C(=O)c1ccc(F)c(F)c1 (stereo not drawn)")
66.4
>>> observed_value("CC1CN(S(=O)(=O)c2ccc(NC(=O)CCl)cc2)CC(C)O1 (stereo not drawn)")
1.43
>>> observed_value("N#CC(=Cc1cc(Cl)ccc1O)C(=O)Nc1cccc2ccccc12")
130
>>> observed_value("CCCn1c(C)cc(C=C(C#N)C(=O)Nc2cccc(C#N)c2)c1C")
107
>>> observed_value("CC(Cl)C(=O)N1Cc2cnn(C)c2C1 (stereo not drawn)")
87
>>> observed_value("CC(Cl)C(=O)NCC(NS(=O)(=O)N(C)C)C1CCCC1 (stereo not drawn)")
91.3
>>> observed_value("CC(Cl)C(=O)N(Cc1ccco1)C1CCN(C)CC1 (stereo not drawn)")
101
>>> observed_value("NC(=O)c1cc(-c2ccccc2)sc1NC(=O)CCl")
0.446
>>> observed_value("CC(Cl)C(=O)NC(C)c1nc(Cc2ccccc2)no1 (stereo not drawn)")
79.9
>>> observed_value("Cn1ncc2ccc(CNC(=O)N3CCSSCC3)cc21")
93.8
>>> observed_value("C=CC(=O)NCc1ccc(F)c(F)c1")
49.1
>>> observed_value("C=CC(=O)N1CCOC(c2cnn(C)c2)C1 (stereo not drawn)")
49.9
>>> observed_value("C=CC(=O)N1CCC(C(=O)NC2(Cc3ccccc3)CCCC2)CC1")
83.4
>>> observed_value("CC(Cl)C(=O)NC1CC(=O)N(Cc2ccccc2C(F)(F)F)C1 (stereo not drawn)")
108
>>> observed_value("CC(C)Oc1ccccc1C=C(C#N)C(=O)Nc1ccccc1Cl")
104
>>> observed_value("C=CC(=O)N(Cc1cnn(C2CCC2)c1)C1CCCc2occc21 (stereo not drawn)")
103
>>> observed_value("C=CC(=O)Nc1cc(C(C)(C)C)nn1-c1ncccn1")
88.8
>>> observed_value("C=CC(=O)NCc1ccc(C(=O)N2CCCCC(SC)C2)cc1 (stereo not drawn)")
57.3
>>> observed_value("CCc1ccc(-c2nn(-c3ccccc3)cc2C=C(C#N)C(N)=O)cc1")
70.6
>>> observed_value("C=CC(=O)N1CCC(c2nnc3n2CCCC3)CC1")
67.6
>>> observed_value("O=C(CCl)N(Cc1ccccc1)c1nc2c(s1)CCCC2")
0.212
>>> observed_value("C=CC(=O)NCCC(=O)N1CCCN(C(=O)c2ccccc2F)CC1")
93.7
>>> observed_value("C=CC(=O)N1CCC(C(=O)NCCc2c(C)n[nH]c2C)CC1")
88.7
>>> observed_value("CC(Cl)C(=O)Nc1ccc([N+](=O)[O-])cc1C(F)(F)F (stereo not drawn)")
98.9
>>> observed_value("C=CC(=O)Nc1ccc(-c2noc(C)n2)cc1")
60.2
>>> observed_value("O=C(CCl)NC(c1cc(F)ccc1F)C(F)F (stereo not drawn)")
0.697
>>> observed_value("O=C(CCl)Cc1ccc(C(F)(F)F)cc1")
1.02
>>> observed_value("O=C(CCl)N1CCC(Cc2nc(-c3ccc(F)cn3)no2)CC1")
1.83
>>> observed_value("CC(Cl)C(=O)N[C@H]1C[C@H](C)S(=O)(=O)c2sccc21 (stereo partly drawn)")
92.4
>>> observed_value("O=C(CCl)Nc1ccc(F)c(F)c1F")
0.759
>>> observed_value("Cc1cc(C(=O)CCl)c(C)n1-c1ccc(OC(F)F)c(Cl)c1")
0.0199
>>> observed_value("CC(NC(=O)CCl)c1nc(Cc2ccccc2)no1 (stereo not drawn)")
1.28
>>> observed_value("C=CC(=O)N1CCC(c2nnnn2C)CC1")
95.6
>>> observed_value("CC(Cl)C(=O)Nc1ccc(S(=O)(=O)N2CCCC2)cc1 (stereo not drawn)")
117
>>> observed_value("C=CC(=O)N1CCN(CC(=O)NC)CC1")
158
>>> observed_value("C=CC(=O)N(CC)CC(=O)N1CCC(c2nncn2C)CC1")
72.6
>>> observed_value("C=CC(=O)N1CCC(C(=O)NCc2ncnn2CC)CC1")
71.2
>>> observed_value("Cc1ncccc1NC(=O)[C@H](C)NC(=O)C(C)Cl (stereo partly drawn)")
99.8
>>> observed_value("N#CC(=Cc1ccc(O)cc1)C(=O)NCCc1c(F)cccc1F")
121
>>> observed_value("C=CC(=O)NCCCc1conc1C")
70.3
